molecular target: Alpha-1D adrenergic receptor (Homo sapiens, UniProt P25100)
Sequence (P25100 whole entry): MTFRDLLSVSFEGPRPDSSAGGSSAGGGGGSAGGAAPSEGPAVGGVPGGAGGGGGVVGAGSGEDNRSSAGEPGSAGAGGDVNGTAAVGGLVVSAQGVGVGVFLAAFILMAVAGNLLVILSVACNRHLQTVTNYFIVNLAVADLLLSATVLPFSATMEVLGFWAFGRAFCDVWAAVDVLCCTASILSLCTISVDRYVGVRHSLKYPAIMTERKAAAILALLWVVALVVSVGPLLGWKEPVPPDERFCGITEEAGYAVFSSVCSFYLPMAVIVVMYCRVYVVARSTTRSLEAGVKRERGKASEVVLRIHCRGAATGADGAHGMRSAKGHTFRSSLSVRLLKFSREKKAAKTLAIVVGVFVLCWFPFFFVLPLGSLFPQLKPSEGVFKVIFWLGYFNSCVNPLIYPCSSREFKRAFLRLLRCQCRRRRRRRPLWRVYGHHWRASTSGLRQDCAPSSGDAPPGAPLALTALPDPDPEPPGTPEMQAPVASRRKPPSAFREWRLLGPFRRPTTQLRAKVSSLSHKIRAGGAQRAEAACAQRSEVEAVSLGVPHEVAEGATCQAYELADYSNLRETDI
pKi: −log10 of the molar value.

{"Compound": "COC(=O)C1=C(C)NC(=O)N(C(=O)NCCCN2CCC(c3ccc(F)cc3)(c3ccc(F)cc3)CC2)C1c1ccc(F)c(F)c1 (stereo not given)", "pKi": 6.92}
{"Compound": "COCC1=C(C(=O)OC)C(c2ccc(F)c(F)c2)N(C(=O)NCCCN2CCC(C#N)(c3ccc(F)cc3)CC2)C(=O)N1 (stereo not given)", "pKi": 6.96}
{"Compound": "COC(=O)C1=C(C)NC(=O)N(C(=O)NCCCN2CCC3(CCCc4ccccc43)CC2)C1c1ccc(F)c(F)c1 (stereo not given)", "pKi": 6.04}
{"Compound": "COC(=O)C1=C(C)NC(=O)N(CC(=O)NCCN2CCC(C(=O)OC)(c3ccccc3)CC2)C1c1ccc(F)c(F)c1 (stereo not given)", "pKi": 6.21}
{"Compound": "COC(=O)C1=C(C)NC(=O)N(C(=O)NCCCN2CCC3(CC2)OCc2ccccc23)C1c1ccc(F)c(F)c1 (stereo not given)", "pKi": 6.68}
{"Compound": "COC(=O)C1=C(C)NC(=O)N(C(=O)NCCCN2CCC(C#N)(c3ccccc3)CC2)C1c1ccc(F)c(F)c1 (stereo not given)", "pKi": 6.64}
{"Compound": "COC(=O)C1=C(C)NC(=O)N(C(=O)NCCCN2CCC3(CC2)OC(=O)Cc2ccccc23)C1c1ccc(F)c(F)c1 (stereo not given)", "pKi": 6.48}
{"Compound": "COC(=O)C1=C(C)NC(=O)N(C(=O)NCCCN2CCC(c3ccc(Cl)cc3)(c3ccc(Cl)cc3)CC2)C1c1ccc(F)c(F)c1 (stereo not given)", "pKi": 6.25}
{"Compound": "COCC1=C(C(=O)OC)C(c2ccc(F)c(F)c2)N(C(=O)NCCCN2CCC(C#N)(c3ccccc3F)CC2)C(=O)N1 (stereo not given)", "pKi": 6.03}
{"Compound": "COC(=O)C1=C(C)NC(=O)N(C(=O)NCCCN2CCC3(CC2)C(=O)Oc2ccccc23)C1c1ccc(F)c(F)c1 (stereo not given)", "pKi": 5.81}
{"Compound": "COC(=O)C1=C(C)NC(=O)N(C(=O)NCCCN2CCC(OC(C)=O)(c3ccccc3)CC2)C1c1ccc(F)c(F)c1 (stereo not given)", "pKi": 6.11}
{"Compound": "COC(=O)C1=C(C)NC(=O)N(C(=O)N2CCC(N3CCC(C(=O)OC)(c4ccccc4)CC3)CC2)C1c1ccc(F)c(F)c1 (stereo not given)", "pKi": 5.65}
{"Compound": "CCC1=C(C(N)=O)C(c2ccc(F)c(F)c2)N(C(=O)NCCC(C)N2CCC(C(=O)OC)(c3ccccc3)CC2)C(=O)N1 (stereo in doubt; 14)", "pKi": 5.65}
{"Compound": "CCC1=C(C(N)=O)C(c2ccc(F)c(F)c2)N(C(=O)NCCC(C)N2CCC(C(=O)OC)(c3ccccc3)CC2)C(=O)N1 (stereo in doubt; 13)", "pKi": 5.68}
{"Compound": "COC(=O)C1=C(C)NC(=O)N(C(=O)NCCCN2CCC3(CC2)OC(=O)c2ccccc23)C1c1ccc(F)c(F)c1 (stereo not given)", "pKi": 5.71}
